Test system: ptD primary ovarian cancer cells
experimentSummary: MTT assay in ptD cells
Format: cell-based, human
testParameters: Homo sapiens, ptD, 72 h
recordedMetric: IC50
Could you give the number and then its unit, please?

Entry Oc1c2ccccc2c2c3c(cccc13)N=N2 [SP600, 1,9-pyrazoloathrone, reference compound] , IC50 reported as 6.25 µM

Entry Cn1nc2c3c(cccc31)C(=O)c1ccccc1-2 [M-SP600, N1-methyl-1,9-pyrazolothrone] , IC50 reported as 6.25 µM

* * *

Consider the following molecules; for each one, report its pIC50.
Tested on: OVCAR5 cells
experimentSummary: MTT assay in OVCAR5 cells
Type: cell-based, human
testParameters: Homo sapiens, OVCAR-5, 72 h
Method: Drug responses were evaluated in the well-established OVCAR5 cancer cell line and a variety of primary ovarian cancer cells lines derived from patient ascites ([…], PKD1, PKD2).
Scale for pIC50: -log10 of concentration given in mol/L; no unit attached.

Entry Cn1nc2c3c(cccc31)C(=O)c1ccccc1-2 [M-SP600, N1-methyl-1,9-pyrazolothrone] , pIC50 reported as 4.90

Entry Oc1c2ccccc2c2c3c(cccc13)N=N2 [SP600, 1,9-pyrazoloathrone, reference compound] , pIC50 reported as 4.90
